# Tested on: SK-OV-3 ovarian
# Run description: NCI-60 one-dose screen, 48 h (100 = growth as untreated, 0 = no growth, -100 = all killed)
# Condition description: 10 µM unless noted
This is part of a sample that, as a whole, favours compounds with a hit. Of some 83,000 tested, about 20% had one in any assay.
Endpoint name: growth (%)
Numbers only here, please. The scale is %.

Exam item: GET /values?readout=growth&item= `O=C(COc1ccc(/C=C2\Oc3ccccc3C2=O)cc1)c1ccc(Cl)cc1`
Marked response: 105

Exam item: # get_value(readout='growth', item= `N#Cc1c(-c2ccccn2)[nH]c(=S)[nH]c1=O` )
Marked response: 104

Exam item: Form field: reported growth of `COc1cc(-c2n/c(=C\c3c(O)[nH]c4ccc(Cl)cc34)cc3c2=Nc2ccccc2-3)cc(OC)c1OC`
Marked response: -14.2

====

# Tested on: NCI-H522 lung
# Run description: NCI-60 one-dose screen, 48 h (100 = growth as untreated, 0 = no growth, -100 = all killed)
# Condition description: 10 µM unless noted
Compounds without any hit were thinned out: in the full panel of roughly 83,000, 20% have a hit.
Endpoint name: growth (%)
Form entry: value (%) — number only.

Exam item: So what does the record say about growth for CC(=O)C(C)Cc1cc2c(cc1C)C(C)(C)CCC2(C)C (stereo not given) ?
Marked response: 85.3

Exam item: State the recorded growth for this entry: `c1coc(-c2c3ccc(=[N+]4CCCCC4)cc-3oc3cc(N4CCCCC4)ccc23)c1`
Marked response: -86.4

Exam item: Need growth, item `Cc1nn(-c2ccccc2)c(Cl)c1/C=C(/NC(=O)c1ccccc1)c1nc2ccccc2[nH]1`
Marked response: 86.6

Exam item: Would you mind telling me what growth value was observed for `CC1=NOC(=O)/C1=C\c1ccc(O)cc1` ?
Marked response: 97.5

Exam item: Entry under review: `C[C@H]1[C@H]2[C@H]3CC[C@@H]4[C@@]5(C)C/C(=C/c6cccnc6)C(=O)C(C)(C)[C@@H]5CC[C@@]4(C)[C@]3(C)CC[C@]23CO[C@]1(C)[C@@H](C(=O)/C=C\c1cccnc1)C3` . Reported growth?
Marked response: -34.4

Exam item: Any idea what growth was measured for `COC(=O)[C@H](CSC)N(C)C(=O)[C@@H]1CSSC[C@@H](NC(=O)c2nc3ccccc3cc2O)C(=O)NCC(=O)N1C` ?
Marked response: 45.9

Exam item: Would you mind telling me what growth value was observed for `Clc1cccc(Cl)c1/C=C/c1cc(/C=C/c2c(Cl)cccc2Cl)[nH]n1` ?
Marked response: -9.35

Exam item: Any idea what its growth is? The compound is `Cc1ccc(S(=O)(=O)Oc2cc(OS(=O)(=O)c3ccc(C)cc3)cc(OS(=O)(=O)c3ccc(C)cc3)c2)cc1`
Marked response: 80.8

Exam item: So what does the record say about growth for `C[C@H](NC(=O)[C@@H]1CSSC[C@@H](NC(=O)c2nc3ccccc3cc2O)C(=O)NCC(=O)N1C)c1ccccc1` ?
Marked response: 24.7

Exam item: For `C#CCOc1nc(C)cc(C)c1C#N` , what is its reported growth?
Marked response: 89.3

====

# System: NCI-H322M lung
# Run description: NCI-60 one-dose screen, 48 h (100 = growth as untreated, 0 = no growth, -100 = all killed)
# Condition description: 10 µM unless noted
About 83,000 compounds went through this panel and 20% of them were active in at least one assay; those are over-represented in the sample as a whole.
Answer each item with its documented growth.
All answers are understood in %, so give the number only.

Exam item: Item under review: `Cc1cc(NCc2cc(Nc3ccnc4cc(Cl)ccc34)ccc2F)nc(N2CCN(c3ccccc3)CC2)n1` . Reported growth?
Marked response: 74.1

Exam item: Look up growth: `Cc1ccc(S(=O)(=O)n2cc(CNc3ccc(N4CCOCC4=O)cc3)c3ccccc32)cc1`
Marked response: 100

Exam item: Look up growth for this molecule: `Cc1cc(C)c2c(-c3nnc(N)s3)cc(=O)oc2c1`
Marked response: 99

Exam item: Please look up its growth: CC(CCc1ccc(Cl)c(Cl)c1)NCc1ccc(C(C)(C)C)cc1 (stereo unspecified)
Marked response: 97.8

Exam item: Record request: growth value, item `Cc1nn(-c2ccccc2)c(Oc2ccc(Cl)cc2)c1/C=N\N=c1/sc2ccccc2n1C`
Marked response: 83.8

Exam item: Endpoint output: growth of `O=c1[nH]nc(-c2ccccc2)c2c(-c3ccccc3)onc12` . Value?
Marked response: 59.8

Exam item: Which measured growth value corresponds to `CCCCCCN(CCCCCC)c1ccc(/C=C2/SC(=O)N(c3nc(N4CCCC4)nc(N4CCCC4)n3)C2=O)c(C)c1` ?
Marked response: 99

Exam item: May I ask what growth has been recorded for `CCn1c(C)nc2cc(C(N)=O)ccc21` ?
Marked response: 86.8

Exam item: Entry `COc1cccc(-c2nn(-c3ccccc3)cc2-c2ccnc(NCCNC(=O)c3ccccc3)c2)c1` has what growth?
Marked response: 109

Exam item: Look at this molecule and give its reported growth. CC1=CN2C(=O)C3C4=C(CCCC4)SC3N=C2CN1c1c(C)cccc1C (stereo unspecified)
Marked response: 109

Exam item: Any idea what its growth is? The molecule is `COc1ccc2cc(-c3cc(OC)c(OC)c(OC)c3)c(=O)oc2c1`
Marked response: 103

Exam item: // growth lookup, key: CC1O[C@@H](OC2[C@H](OC(=O)/C=C/c3ccc(O)c(O)c3)C(COC3O[C@H](C)C(O)C(O)[C@@H]3O)O[C@@H](OCCc3ccc(O)c(O)c3)[C@H]2O)[C@@H](O)C(O)[C@H]1O (stereo partly specified)
Marked response: 89.4

Exam item: May I ask what growth has been recorded for COc1cc(C2CC(=O)Nc3c2c(C)nn3-c2nc3ccccc3[nH]2)c(OC)c(OC)c1OC (stereo unspecified) ?
Marked response: 95.2

Exam item: Give the measured growth of `C=CCOC1=CC(=O)c2ccccc2C1=O` .
Marked response: 91.6

Exam item: Reported growth, molecule `O=C1/C(=C/c2ccc(Br)cc2)C=C(c2ccccc2)N1CCc1ccccc1` : ____
Marked response: 54.3

Exam item: Quick check: growth of `CCOC(=O)c1csc(NC(=O)COc2cccc(/C=C3\Oc4cc(OC)ccc4C3=O)c2)n1` ?
Marked response: 99.7

====

Would you kindly list growth for each of these molecules?
# Test system: HOP-92 NSCLC
# Run description: NCI-60 one-dose screen, 48 h (100 = growth as untreated, 0 = no growth, -100 = all killed)
# Condition description: 10 µM unless noted
About 83,000 compounds went through this panel and 20% of them were active in at least one assay; those are over-represented in the sample as a whole.
Write the answer as a number in %, unit excluded.

Exam item: Which growth value belongs to COc1ccc(C2CC(c3cccc(OC)c3)=NN2C(=O)c2cc(OC)c(OC)c(OC)c2)cc1 (centres undefined) ?
Marked response: 35.9

Exam item: Bench note: what growth did `CCCCCS(=O)(=O)Nc1ccc(C(=O)O)cc1` show?
Marked response: 105

Exam item: Fill in: growth of `O=C(c1ccccc1)c1c(/C=C/c2ccc(Cl)cc2)nc2ccccc2c1/C=C/c1cccs1` is ___
Marked response: 87.3

Exam item: For the molecule `N#Cc1c(-c2cccc(Cl)c2)cc(-c2cccc(F)c2)[nH]c1=O` , what growth is on record?
Marked response: 55.3

====

# System: HS 578T breast
# Run description: NCI-60 one-dose screen, 48 h
# Condition description: 10 µM unless noted
This is part of a sample that, as a whole, favours compounds with a hit. Of some 83,000 tested, about 20% had one in any assay. Activity calls are given as the source filed them. How the source made its calls: active means growth percent below 10; inactive means the rest.
Outcome (select one): active, inactive

Exam item: Assay outcome for `COc1cc(N=Nc2cc(Cc3ccc(N(C)C)cc3)c(N)cc2N(C)C)c2ncccc2c1` : what was it?
Marked response: inactive

Exam item: Entry `CCN(CC)c1ccc(C(=O)c2ccc(N(CC)CC)cc2)cc1` : call = ?
Marked response: inactive

Exam item: Please share the test call associated with CC(=O)N1N=C(c2ccc(Nc3nc(Nc4ccc(F)cc4)nc(Nc4ccc(F)cc4)n3)cc2)CC1c1cccc([N+](=O)[O-])c1 (stereo not drawn) .
Marked response: inactive

Exam item: Outcome logged for `COc1ccc2c(c1)C(=O)/C(=C/c1cccc(OCC(=O)Nc3nc(C)c(C)s3)c1)O2` in this assay:
Marked response: active

Exam item: Tell me the assay call for `CCOC(=O)c1c2c(n3ccc(NC(=O)OC(C)(C)C)cc13)C(=O)c1ncccc1C2=O` please.
Marked response: active

Exam item: Returns: the outcome recorded for `Cc1ccc(/C=C/c2c(C(=O)/C=C/c3ccc(Cl)cc3)c(C)nc3ccccc23)cc1` in this assay.
Marked response: active

Exam item: Identify the outcome logged in this assay for the compound shown: `Cc1ccc(Nc2ccc(Nc3ccc(C)cc3)c3c2C(=O)c2cccc(O)c2C3=O)cc1`
Marked response: inactive

Exam item: Hi, sorry to bother you, what did the test record for `CCN(CC)S(=O)(=O)c1cccc(-c2ccc3c(NC(=O)C4CC4)n[nH]c3c2)c1` ?
Marked response: inactive

Cited source: PubChem BioAssay (NCI)
